- Tested system: Hst2 (S. cerevisiae, UniProt P53686 1-357)
- Sequence (P53686 whole entry): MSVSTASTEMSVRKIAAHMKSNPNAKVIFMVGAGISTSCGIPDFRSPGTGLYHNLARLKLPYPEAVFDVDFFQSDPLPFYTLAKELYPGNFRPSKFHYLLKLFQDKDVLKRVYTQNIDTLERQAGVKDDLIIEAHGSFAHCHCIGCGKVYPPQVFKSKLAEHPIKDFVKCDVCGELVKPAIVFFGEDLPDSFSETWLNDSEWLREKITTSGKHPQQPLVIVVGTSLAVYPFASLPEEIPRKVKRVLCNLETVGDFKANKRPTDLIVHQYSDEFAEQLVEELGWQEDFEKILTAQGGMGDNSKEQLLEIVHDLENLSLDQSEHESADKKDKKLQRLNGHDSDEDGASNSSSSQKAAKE
- Measurement protocol: ITC
Ends that are not written are not given here. * marks the point of attachment. Bz = O=C(c1ccccc1)*
Observation type: pKd
Note on pKd: it is the negative log10 of concentration, concentration in mol/L.

Entry TARKSTGGK(Bz)APRKQLASY [H3K14bz peptide] ; pKd = 4.88

# pKd (binder: APRKQLASK(Bz)AARKSAPSTY [H3K23bz peptide] ) is 4.83

get_value(item= KQLASKAARK(Bz)SAPSTGGVKY [H3K27bz peptide] , readout=pKd) returns 5.21

pKd measured on STGGKAPRKQLASKAARY (benzoyl-lysine (Kbz) at K18) [H3K18bz peptide] = 5.76
